target: T1, human CD3 (human, UniProt P07766 23-207; P04234 22-171; P09693 23-182); assay: FACS on Jurkat cells
T1 construct: whole, on cells; also called hCD3; CD3 on Jurkat cells
T1 sequence (P07766 23-207, chain 1 of 3): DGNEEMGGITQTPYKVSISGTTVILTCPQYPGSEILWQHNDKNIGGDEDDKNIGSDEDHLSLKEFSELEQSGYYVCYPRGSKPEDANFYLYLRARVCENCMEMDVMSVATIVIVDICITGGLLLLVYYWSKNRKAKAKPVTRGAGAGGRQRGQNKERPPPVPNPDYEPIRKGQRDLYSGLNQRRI
T1 sequence (P04234 22-171, chain 2 of 3): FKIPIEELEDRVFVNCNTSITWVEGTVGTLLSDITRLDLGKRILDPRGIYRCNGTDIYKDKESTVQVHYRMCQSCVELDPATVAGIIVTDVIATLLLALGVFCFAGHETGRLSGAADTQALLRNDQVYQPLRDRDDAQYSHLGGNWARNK
T1 sequence (P09693 23-182, chain 3 of 3): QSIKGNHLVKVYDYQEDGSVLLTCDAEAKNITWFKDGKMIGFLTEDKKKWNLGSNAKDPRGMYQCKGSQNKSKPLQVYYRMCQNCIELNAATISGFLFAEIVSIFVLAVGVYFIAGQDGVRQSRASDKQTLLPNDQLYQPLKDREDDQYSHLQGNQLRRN
Kindly state Top FACS signal for each of the entries shown.
No unit in the answer, only the number.

Request the reported Top FACS signal associated with hu40E9-L2H3-S91R.L (antibody, V domains shown) VH: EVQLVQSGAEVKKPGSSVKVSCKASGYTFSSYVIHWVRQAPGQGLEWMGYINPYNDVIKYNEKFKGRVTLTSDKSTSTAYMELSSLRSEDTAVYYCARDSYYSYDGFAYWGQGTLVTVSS VL: EIVLTQSPDFQSVTPKEKVTITCSASSSVSYMHWYQQKPDQSPKRLIYDTSKLASGVPSRFSGSGSGTDFTLTINSLEAEDAATYYCQQWRSNPPTFGGGTKVEIK
1360

Query (binder): hu40E9-L2H3-Y54G.H (antibody, V domains shown) VH: EVQLVQSGAEVKKPGSSVKVSCKASGYTFSSYVIHWVRQAPGQGLEWMGYINPGNDVIKYNEKFKGRVTLTSDKSTSTAYMELSSLRSEDTAVYYCARDSYYSYDGFAYWGQGTLVTVSS VL: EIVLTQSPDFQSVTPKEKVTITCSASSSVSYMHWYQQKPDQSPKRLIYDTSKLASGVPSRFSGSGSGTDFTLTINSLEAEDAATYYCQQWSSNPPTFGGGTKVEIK ; field requested: Top FACS signal
1190

Using the record for hu40E9-L2H2 (antibody, V domains shown, humanized 40-C12-C10-E9) VH: EVQLVQSGAEVKKPGSSVKVSCKASGYTFSSYVIHWVRQAPGQGLEWMGYINPYNDVIKYNEKFKGRVTITADKSTSTAYMELSSLRSEDTAVYYCARDSYYSYDGFAYWGQGTLVTVSS VL: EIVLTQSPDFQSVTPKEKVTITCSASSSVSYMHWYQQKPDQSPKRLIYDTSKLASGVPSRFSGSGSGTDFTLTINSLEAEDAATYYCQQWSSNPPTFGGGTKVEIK , report its Top FACS signal.
1570

Name the reported Top FACS signal value associated with the binder hu40E9-L2H3 (antibody, V domains shown, humanized 40-C12-C10-E9) VH: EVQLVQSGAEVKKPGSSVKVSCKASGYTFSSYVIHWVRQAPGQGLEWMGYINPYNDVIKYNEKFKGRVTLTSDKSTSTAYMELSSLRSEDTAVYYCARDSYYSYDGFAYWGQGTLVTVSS VL: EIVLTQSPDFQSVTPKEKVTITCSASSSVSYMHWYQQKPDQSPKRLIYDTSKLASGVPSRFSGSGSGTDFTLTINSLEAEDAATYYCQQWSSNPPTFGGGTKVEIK
1580

Top FACS signal lookup needed for hu40E9-L2H3-D56G.H (antibody, V domains shown) VH: EVQLVQSGAEVKKPGSSVKVSCKASGYTFSSYVIHWVRQAPGQGLEWMGYINPYNGVIKYNEKFKGRVTLTSDKSTSTAYMELSSLRSEDTAVYYCARDSYYSYDGFAYWGQGTLVTVSS VL: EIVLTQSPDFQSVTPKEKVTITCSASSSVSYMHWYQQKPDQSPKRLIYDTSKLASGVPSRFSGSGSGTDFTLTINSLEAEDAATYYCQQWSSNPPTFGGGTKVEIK , thanks.
1450
